B1: EEHEE_rd3_1049 (parent)
chain: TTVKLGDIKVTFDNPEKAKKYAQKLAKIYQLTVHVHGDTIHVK

variants of: B1; assay: folding stability dG (cDNA display proteolysis); higher = more stable; conditions: PBS, room temperature
Use 1 kcal/mol as the dividing line for folding stability dG, with the line itself on the fulfilled side and lower values as not fulfilled.

Worked cases, answers included:
MUTATION_DESCRIPTOR: V3C
GROUP_LABEL: fulfilled
--
MUTATION_DESCRIPTOR: A26P
GROUP_LABEL: not fulfilled

Inquiry: Assess whether reported folding stability dG for "F12C" sits at 1 kcal/mol or higher.
Reply text: fulfilled

Inquiry: Reported folding stability dG reaches at least 1 kcal/mol for "K27V" ?
Reply text: fulfilled

Inquiry: Can "D7K" be said to have folding stability dG at or above 1 kcal/mol?
Reply text: fulfilled

Inquiry: Is it the case that "P15L" has folding stability dG reaching or exceeding 1 kcal/mol?
Reply text: fulfilled

Inquiry: Is it the case that "A26S" has folding stability dG reaching or exceeding 1 kcal/mol?
Reply text: fulfilled

Inquiry: Please tell me: is the variant "Q23F" at or over 1 kcal/mol in terms of folding stability dG?
Reply text: fulfilled

Inquiry: Tell me whether folding stability dG is at least 1 kcal/mol here: "Q30H"
Reply text: fulfilled

Inquiry: Has "K27D" a recorded folding stability dG greater than or equal to 1 kcal/mol?
Reply text: fulfilled

Inquiry: API: above_or_equal(metric=folding stability dG, cutoff=1 kcal/mol) for item "V10N"
Reply text: not fulfilled

Inquiry: Quick check: does "F12M" have folding stability dG greater than or equal to 1 kcal/mol?
Reply text: not fulfilled
